TARGET_UNDER_TEST: arginase
Construct: purified recombinant arginase
ASSAY_OVERVIEW: enzyme inhibition kinetics with purified recombinant arginase; Dixon and Cornish-Bowden plots (IC50 […])
REPORTED_METRIC: pKi
The read-out pKi is expressed as -log10 of concentration in moles per litre.

# lookup: O=C(/C=C/c1ccc(O)c(O)c1)OCCc1ccccc1 [CAPE, Caffeic acid phenethyl ester] on arginase, pKi = 5.82

Taken from paper PMC12030301.
